All values here come from the supplement of paper PMC6555819.

tested on: PPARg:RXRa 30nM:10nM, anti-RXR (NR concentration 30 nM, RXRa partner concentration 10 nM); assay: PBM binding z-score (relative to random genomic background probes); higher = stronger binding; sequences stand for … in GC…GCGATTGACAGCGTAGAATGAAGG
Respond with yes (1) for PBM binding z-score values of 1 and above, no (0) for values below.

Here's what some known entries look like.
Record Sequence	Classification
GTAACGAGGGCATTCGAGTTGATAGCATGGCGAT	no (0)
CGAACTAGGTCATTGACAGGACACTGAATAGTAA	yes (1)
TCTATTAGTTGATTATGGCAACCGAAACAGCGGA	yes (1)
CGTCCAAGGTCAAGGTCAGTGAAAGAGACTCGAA	yes (1)
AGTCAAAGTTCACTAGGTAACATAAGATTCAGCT	yes (1)
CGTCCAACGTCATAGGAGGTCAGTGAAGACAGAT	no (0)
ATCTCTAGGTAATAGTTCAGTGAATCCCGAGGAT	yes (1)
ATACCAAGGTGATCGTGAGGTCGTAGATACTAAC	no (0)

Could you tell me if the measured PBM binding z-score of "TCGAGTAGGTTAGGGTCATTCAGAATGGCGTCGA" reaches 1 or more? yes (1)

Could you tell me if the measured PBM binding z-score of "ATCTCTAGGTAACCCAGTTCAGTGAATGCCGAAC" reaches 1 or more? no (0)

Could you tell me if the measured PBM binding z-score of "GCTCGGAGGATAAGGTCAGAGCTTTGTCCGTAGA" reaches 1 or more? no (0)

Could you tell me if the measured PBM binding z-score of "TTATATAGGTAAAAGGTGAAAGTCGGTGTGGTAA" reaches 1 or more? yes (1)

---

tested on: PPARg:RXRa 30nM:10nM, anti-RXR (NR concentration 30 nM, RXRa partner concentration 10 nM); assay: PBM binding z-score (relative to random genomic background probes); higher = stronger binding; sequences stand for … in GC…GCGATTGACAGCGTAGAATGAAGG
Attribute: PBM binding z-score
Form field (numeric): enter value without unit.

Record Sequence	PBM binding z-score
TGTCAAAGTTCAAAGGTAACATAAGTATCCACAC	5.46
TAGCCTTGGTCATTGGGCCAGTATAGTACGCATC	-0.34
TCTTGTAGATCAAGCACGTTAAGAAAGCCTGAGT	2.5
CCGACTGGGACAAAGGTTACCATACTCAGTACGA	8.13
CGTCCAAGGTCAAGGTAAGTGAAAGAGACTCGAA	1.81
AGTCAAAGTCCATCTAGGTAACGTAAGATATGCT	0.277

Provide measured PBM binding z-score on PPARg:RXRa 30nM:10nM, anti-RXR (NR concentration 30 nM, RXRa partner concentration 10 nM) for "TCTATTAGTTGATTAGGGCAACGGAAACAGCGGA" please. 3.35

---

tested on: FXR:RXRa (NR concentration 270 nM, RXRa partner concentration 90 nM); assay: PBM binding z-score (relative to random genomic background probes); higher = stronger binding; sequences stand for … in GC…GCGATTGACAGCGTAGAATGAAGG
Entries are sorted into classes by PBM binding z-score as follows: low range = under 1, mid range = from 1 up to 4, high range = 4 and over

Here's what some known entries look like.
Record Sequence	System	Classification
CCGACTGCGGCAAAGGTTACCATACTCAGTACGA	FXR:RXRa (NR concentration 270 nM, RXRa partner concentration 90 nM)	low range
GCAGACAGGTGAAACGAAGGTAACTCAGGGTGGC	FXR:RXRa (NR concentration 270 nM, RXRa partner concentration 90 nM)	low range
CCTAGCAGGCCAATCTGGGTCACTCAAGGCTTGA	FXR:RXRa (NR concentration 270 nM, RXRa partner concentration 90 nM)	mid range
GCTAGCAGGCCATTTGGGTTACTCAATGACGGGC	FXR:RXRa (NR concentration 270 nM, RXRa partner concentration 90 nM)	low range
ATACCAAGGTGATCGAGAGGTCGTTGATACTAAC	FXR:RXRa (NR concentration 270 nM, RXRa partner concentration 90 nM)	mid range
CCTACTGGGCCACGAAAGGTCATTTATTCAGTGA	FXR:RXRa (NR concentration 270 nM, RXRa partner concentration 90 nM)	mid range
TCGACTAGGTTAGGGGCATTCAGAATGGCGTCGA	FXR:RXRa (NR concentration 270 nM, RXRa partner concentration 90 nM)	low range
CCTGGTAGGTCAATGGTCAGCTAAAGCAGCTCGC	FXR:RXRa (NR concentration 270 nM, RXRa partner concentration 90 nM)	mid range

Record "CCTAGTTGGTCGAGGTCACACACGCTATAGGTAC" — which class? high range

---

test system: RXRa DBDmut IVT, anti-RXR (DBD mutation: RXRa K156A/R161A, NR concentration 90 nM); assay: PBM binding z-score (relative to random genomic background probes); higher = stronger binding; sequences stand for … in GC…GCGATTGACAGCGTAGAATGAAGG
Measured Quantity: PBM binding z-score

Record excerpt, results attached:
Record Sequence	PBM binding z-score
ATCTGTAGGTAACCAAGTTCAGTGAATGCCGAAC	0.655
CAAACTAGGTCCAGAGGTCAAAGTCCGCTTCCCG	2.53
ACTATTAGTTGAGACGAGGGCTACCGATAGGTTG	0.406

Consider the sequence "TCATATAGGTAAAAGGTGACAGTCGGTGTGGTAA" and give its recorded PBM binding z-score. 1.66

Consider the sequence "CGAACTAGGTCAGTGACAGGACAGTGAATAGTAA" and give its recorded PBM binding z-score. 0.653

Consider the sequence "CCTCACGGGTCAAGGTTATAGCACGGGTGGTACG" and give its recorded PBM binding z-score. -0.168

Consider the sequence "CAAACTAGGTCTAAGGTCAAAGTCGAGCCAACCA" and give its recorded PBM binding z-score. 2.51

Consider the sequence "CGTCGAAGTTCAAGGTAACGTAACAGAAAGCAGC" and give its recorded PBM binding z-score. 3.69

---

tested on: PPARg:RXRa (NR concentration 180 nM, RXRa partner concentration 90 nM); assay: PBM binding z-score (relative to random genomic background probes); higher = stronger binding; sequences stand for … in GC…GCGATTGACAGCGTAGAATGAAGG
Attribute: PBM binding z-score
Form field (numeric): enter value without unit.

Record excerpt, results attached:
Record Sequence	Measured Quantity	Recorded Measurement
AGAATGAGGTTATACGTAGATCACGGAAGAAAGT	PBM binding z-score	1.91
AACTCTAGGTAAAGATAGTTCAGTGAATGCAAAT	PBM binding z-score	0.601

Consider the sequence "AATACACGGTCATCGTAGGCCAGAGTACGCACAG" and give its recorded PBM binding z-score. 1.15

Consider the sequence "CCTCCAAGGTCAGAGAGGTCAGTGAATGCCGAGT" and give its recorded PBM binding z-score. 3.2

---

test system: THRa:RXRa (NR concentration 90 nM, RXRa partner concentration 90 nM); assay: PBM binding z-score (relative to random genomic background probes); higher = stronger binding; sequences stand for … in GC…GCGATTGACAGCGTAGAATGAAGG
Measured Quantity: PBM binding z-score
Form field (numeric): enter value without unit.

Record Sequence	Recorded Measurement
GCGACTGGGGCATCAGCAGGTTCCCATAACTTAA	-0.0535
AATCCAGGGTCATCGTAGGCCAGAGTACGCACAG	4.55
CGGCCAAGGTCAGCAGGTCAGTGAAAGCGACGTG	3.85
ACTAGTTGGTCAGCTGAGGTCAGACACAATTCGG	4.56
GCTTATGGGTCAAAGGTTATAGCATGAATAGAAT	3.41
ATATGTAGGTTGGCTGGGGTCATTCAGACTAGGC	4.72

Here is the next item to consider.
Consider the sequence "CCTATTAGTTGACCATAAGGGCACCCGAAGCTCG" and give its recorded PBM binding z-score. 2.02

---

test system: THRa:RXRa (NR concentration 90 nM, RXRa partner concentration 90 nM); assay: PBM binding z-score (relative to random genomic background probes); higher = stronger binding; sequences stand for … in GC…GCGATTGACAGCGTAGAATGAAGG
Attribute: PBM binding z-score
Form field (numeric): enter value without unit.

Record excerpt, results attached:
Record Sequence	PBM binding z-score
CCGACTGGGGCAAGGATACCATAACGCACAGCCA	-0.00683
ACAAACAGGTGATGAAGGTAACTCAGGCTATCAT	1.19
AGTCACAGTTCATCTAGGTAACGTAAGATATGCT	2.13
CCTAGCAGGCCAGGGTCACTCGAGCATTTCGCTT	2.83
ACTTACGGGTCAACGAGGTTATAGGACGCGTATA	4.32
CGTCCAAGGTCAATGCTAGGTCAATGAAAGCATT	4.57

Here is the next item to consider.
Consider the sequence "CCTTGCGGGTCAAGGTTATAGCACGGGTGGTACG" and give its recorded PBM binding z-score. 3
